# TARGET_OF_ASSAY: Muscarinic acetylcholine receptor M1 (Rattus norvegicus)
# Sequence (P08482 whole entry): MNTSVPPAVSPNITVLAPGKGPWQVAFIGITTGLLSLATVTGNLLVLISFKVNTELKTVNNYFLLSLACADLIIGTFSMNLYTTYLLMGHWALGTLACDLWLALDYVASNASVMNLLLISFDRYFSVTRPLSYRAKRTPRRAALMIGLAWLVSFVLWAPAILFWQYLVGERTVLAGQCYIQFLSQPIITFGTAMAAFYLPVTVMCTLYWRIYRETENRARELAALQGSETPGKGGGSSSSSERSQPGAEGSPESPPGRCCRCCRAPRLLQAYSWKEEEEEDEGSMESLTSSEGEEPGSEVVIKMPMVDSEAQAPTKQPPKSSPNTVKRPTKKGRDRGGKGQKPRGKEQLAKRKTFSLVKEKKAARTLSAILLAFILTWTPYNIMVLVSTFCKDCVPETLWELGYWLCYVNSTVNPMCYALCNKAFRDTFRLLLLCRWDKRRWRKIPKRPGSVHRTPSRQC
# PROCEDURE_DETAILS: Agonist activity at rat muscarinic M1 receptor expressed in CHO cells
# Format: functional, cell-based
pEC50: −log10 of the molar value.
MEASUREMENT_KIND: pEC50

CCOC(=O)N1CCC(N2CCC[C@@H](NC(=O)c3ccc(F)cc3C)C2)CC1 = 7.22
CCOC(=O)N1CCC(N2CCC[C@@H](NC(=O)c3cccc(OC)c3)C2)CC1 = 6.60
CCOC(=O)N1CCC(N2CCC[C@@H](NC(=O)c3ccccc3)C2)CC1 = 6.89
CCOC(=O)N1CCC(N2CCC[C@@H](NC(=O)c3ccccc3C)C2)CC1 = 6.96
CCOC(=O)N1CCC(N2CCC[C@@H](NC(=O)c3cccc(F)c3)C2)CC1 = 6.85

The measurements presented in this section are drawn from ChEMBL document CHEMBL1914417.
